# pIC50 annotations
- Target Entity: human V1a receptor (Homo sapiens)
- Experimental Details: In-vitro binding assay, 3H-arginine-8-vasopressin, V1a membranes
- Applied Conditions: V1a (first value of V1a/V2)
pIC50: −log10 of the molar value.
Measurement Type: pIC50

molecule=CCOc1cc(C(=O)N2CC[C@]3(C=C(C(=O)O)CC3)Cc3ccccc32)ccc1NC(=O)c1cc(F)ccc1Cl numeric_readout=8.10
molecule="CN(C)CCNC(=O)C1=CC2(CC1)CCN(C(=O)c1ccc(NC(=O)c3ccccc3-c3ccccc3)cc1)c1ccccc1C2 (racemic) [A, reference compound]" numeric_readout=8.30
molecule="O=C(O)C1=C[C@@]2(CC1)CCN(C(=O)c1ccc(NC(=O)c3cc(F)ccc3Cl)cc1)c1ccccc1C2 [reference compound]" numeric_readout=7.89
molecule=COc1cc(C(=O)N2CC[C@]3(C=C(C(=O)O)CC3)Cc3ccccc32)ccc1NC(=O)c1cc(F)ccc1Cl numeric_readout=8.30

###

- Target Entity: human V1a receptor (Homo sapiens, UniProt P37288)
- Sequence (P37288 whole entry): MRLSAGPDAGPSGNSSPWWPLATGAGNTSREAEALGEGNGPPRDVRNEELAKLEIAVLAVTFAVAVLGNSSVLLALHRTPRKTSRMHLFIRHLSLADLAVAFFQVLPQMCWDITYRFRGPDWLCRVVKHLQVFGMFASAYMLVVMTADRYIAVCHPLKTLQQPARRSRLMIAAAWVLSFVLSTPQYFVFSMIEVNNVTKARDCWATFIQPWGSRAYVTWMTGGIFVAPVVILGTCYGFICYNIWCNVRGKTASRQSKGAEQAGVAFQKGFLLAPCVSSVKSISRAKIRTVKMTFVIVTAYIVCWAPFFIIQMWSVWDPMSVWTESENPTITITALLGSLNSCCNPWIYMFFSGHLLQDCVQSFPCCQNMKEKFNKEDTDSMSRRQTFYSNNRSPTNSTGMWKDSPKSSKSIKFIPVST
- Experimental Details: V1a vasopressin receptor functional activity (intracellular calcium mobilization, FLIPR, V1a-HEK cells)
- Type: cell-based
- Applied Conditions: V1a (first value of V1a/V2); vasopressin-challenged transfected HEK-293 cells
Measurement Type: IC50 (nM)

molecule="O=C(O)C1=C[C@@]2(CC1)CCN(C(=O)c1ccc(NC(=O)c3cc(F)ccc3Cl)cc1)c1ccccc1C2 [reference compound]" target_entity="human V1a receptor (Homo sapiens, UniProt P37288)" measurement_type=IC50 numeric_readout=380
molecule="CN(C)CCNC(=O)C1=CC2(CC1)CCN(C(=O)c1ccc(NC(=O)c3ccccc3-c3ccccc3)cc1)c1ccccc1C2 (racemic) [A, reference compound]" target_entity="human V1a receptor (Homo sapiens, UniProt P37288)" measurement_type=IC50 numeric_readout=4
molecule="CCOc1cc(C(=O)N2CC[C@]3(C=C(C(=O)O)CC3)Cc3ccccc32)ccc1NC(=O)c1cc(F)ccc1Cl [Compound 31]" target_entity="human V1a receptor (Homo sapiens, UniProt P37288)" measurement_type=IC50 numeric_readout=50
molecule="COc1cc(C(=O)N2CC[C@]3(C=C(C(=O)O)CC3)Cc3ccccc32)ccc1NC(=O)c1cc(F)ccc1Cl [Compound 29]" target_entity="human V1a receptor (Homo sapiens, UniProt P37288)" measurement_type=IC50 numeric_readout=38
